# protocol-notes: Inhibition of Yersinia pestis YopH using […] as substrate by spectrophotometry
reported-endpoint: Ki
Please provide the amount together with its unit, number first.

# query: Ki of entry O=C(O)C1=CC(=C(c2ccc(O)c(C(=O)O)c2)c2ccc(O)c(C(=O)O)c2)C=CC1=O
5 nM
